System: HT-29
Assay: NCI tumour cell line growth inhibition, 48 h
Activity calls are given as the source filed them. No stated cut-off is given here; in the data, active = GI50 up to about 1.1 µM and inactive = higher.
Reported GI50 values for a set of molecules
Observable: GI50

• NS(=O)(=O)c1ccc(NC(NC(=O)C(C(F)(F)F)C(F)(F)F)(C(F)(F)F)C(F)(F)F)cc1 = > 100 µM (inactive)
• COC(=O)C1=C2CCC(=O)[C@@]2(C)C(OC(C)=O)C=CC1 (some centres undefined) = > 100 µM (inactive)
• COC(=O)OCC1OC(N2C(=O)NC(=O)C(Br)C2N=[N+]=[N-])CC1OC(=O)OC (centres undefined) = > 100 µM (inactive)
• COC(=O)c1c[nH]c2c1-c1cc(C(=O)OCc3ccccc3)n(S(=O)(=O)c3ccc(C)cc3)c1C(=O)C2=O = 0.473 µM (active)
• CC(=O)OC[C@]1(O)CC[C@@]23CC1C[C@@H]2CCC1C(C)(C)CCC[C@@]13C (some centres undefined) = 13 µM (inactive)
• O=C(O)c1nn(-c2ccccc2)nc1-c1nn(-c2ccccc2)nc1C(=O)O = > 100 µM (inactive)
• CN(C)CCn1c(=O)c2ccc3c4c(nn3CCN(C)C)c3cc(O)ccc3n(c1=O)c24 = < 0.01 µM (active)
• CCN(CC)CCCNC(=O)c1cc2cc(NC(=O)c3cc4cc([N+](=O)[O-])ccc4[nH]3)ccc2[nH]1 = 35 µM (inactive)
• COc1ccc(NC2=NCCO2)c2ccccc12 = > 10 µM (inactive)
